The reported measurements were obtained from patent US12110299B2.

# Study target: recombinant purified human CDK7 kinase (Homo sapiens (Human))
# Sequence (P50613 whole entry): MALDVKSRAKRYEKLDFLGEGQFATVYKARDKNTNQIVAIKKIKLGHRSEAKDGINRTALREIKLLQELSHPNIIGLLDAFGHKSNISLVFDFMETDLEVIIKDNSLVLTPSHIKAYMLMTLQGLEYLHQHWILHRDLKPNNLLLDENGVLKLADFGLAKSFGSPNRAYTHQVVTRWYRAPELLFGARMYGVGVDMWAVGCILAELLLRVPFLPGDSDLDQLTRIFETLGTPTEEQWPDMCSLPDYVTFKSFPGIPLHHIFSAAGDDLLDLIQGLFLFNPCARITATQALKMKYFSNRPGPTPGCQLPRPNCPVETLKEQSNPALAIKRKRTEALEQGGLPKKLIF
# Sequence (P51946 whole entry partner): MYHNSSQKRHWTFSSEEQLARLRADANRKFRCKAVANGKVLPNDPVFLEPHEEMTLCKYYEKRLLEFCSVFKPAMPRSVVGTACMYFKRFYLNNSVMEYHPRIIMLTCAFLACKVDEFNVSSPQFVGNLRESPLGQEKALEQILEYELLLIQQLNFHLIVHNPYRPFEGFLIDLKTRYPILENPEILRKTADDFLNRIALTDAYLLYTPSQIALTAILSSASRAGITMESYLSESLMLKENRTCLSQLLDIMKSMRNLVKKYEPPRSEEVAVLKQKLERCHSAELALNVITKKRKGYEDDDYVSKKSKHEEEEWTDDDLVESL
# Sequence (P51948 whole entry partner): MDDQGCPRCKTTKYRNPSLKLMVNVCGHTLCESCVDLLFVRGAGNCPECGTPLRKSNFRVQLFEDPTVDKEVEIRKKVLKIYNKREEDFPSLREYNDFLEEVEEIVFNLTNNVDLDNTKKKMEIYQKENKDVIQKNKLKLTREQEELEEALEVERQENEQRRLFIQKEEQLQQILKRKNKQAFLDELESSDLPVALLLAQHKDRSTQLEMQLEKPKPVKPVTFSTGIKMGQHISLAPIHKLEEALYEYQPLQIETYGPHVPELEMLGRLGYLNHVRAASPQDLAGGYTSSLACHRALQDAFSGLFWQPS
# Assay info: CDK7 kinase-inhibitory activity, ADP-Glo kinase assay
# Assay type: biochemical
# Study conditions: ATP 90 µM, MBP substrate, 2 hours at 30° C., read-out: CDK7 inhibition(IC50 nM)
What IC50 was measured for each of the following?
Give bare numbers, in nM.

Compound	IC50, nM
CC(C(=O)Nc1ncc(Cl)s1)c1cncc(-c2cnc(NC(=O)/C=C/CN(C)C)cn2)c1 (centres unmarked)	43

Items follow; give IC50 for each.
1. C=CC(=O)Nc1cnc(-c2cccc([C@H](C)C(=O)Nc3ncc(C(F)(F)F)s3)c2)cn1
2. CCc1cnc(NC(=O)[C@@H](C)c2cccc(-c3cnc(NC(=O)/C=C/CN(C)C)c(F)c3)c2)s1
3. C[C@H](C(=O)Nc1ncc(C(F)(F)F)s1)c1cccc(-c2ccc(NC(=O)/C=C/CN(C)C)nc2)c1
4. C[C@H](C(=O)Nc1ncc(C(F)(F)F)s1)c1cccc(-c2cnc(NC(=O)/C=C/CN(C)C)c(C#N)c2)c1

output:
[17, 8, 13, 7]

====

What IC50 was measured for each of the following?
# Test system: MDA-MB-468 cells
# Assay info: Anti-proliferative effect on MDA-MB-468 cells, IC50 (MTT)
# Format: cell-based
# Study conditions: Homo sapiens, MDA-MB-468, 72 h
Answers are plain numbers, in nM.

// known answers, use as guide
Compound	IC50 (nM)
CCc1cnc(NC(=O)[C@@H](C)c2cccc(-c3cnc4c(c3)CCN4C(=O)/C=C/CN(C)C)c2)s1 [Example 122]	34
CC(C(=O)Nc1ncc(C(F)(F)F)s1)c1cncc(-c2cnc(NC(=O)/C=C/CN3CC4CC3CO4)cn2)c1 (stereo not shown) [Example 83]	21
C[C@H](C(=O)Nc1ncc(C(F)(F)F)s1)c1cccc(-c2cnc(NC(=O)/C=C/CN(C)C)cn2)c1 [Example 81]	39

Items follow; give IC50 for each.
1. CCc1cnc(NC(=O)[C@@H](C)c2cccc(-c3ccc(NC(=O)/C=C/CN(C)C)nc3)c2)s1 [Example 17]
2. C[C@H](C(=O)Nc1ncc(C(F)(F)F)s1)c1cccc(-c2cnc(NC(=O)/C=C/CN3CC[C@@H](F)C3)cn2)c1 [Example 115]
3. C=CC(=O)Nc1cnc(-c2cccc([C@H](C)C(=O)Nc3ncc(C(F)(F)F)s3)c2)cn1 [Example 37]
4. CCN(CC)C/C=C/C(=O)Nc1cnc(-c2cccc([C@H](C)C(=O)Nc3ncc(C(F)(F)F)s3)c2)cn1 [Example 114]
5. C[C@H](C(=O)Nc1ncc(C(F)(F)F)s1)c1cccc(-c2cnc(NC(=O)/C=C/CN(C)C)c(Cl)c2)c1 [Example 113]
6. C[C@H](C(=O)Nc1ncc(C(F)(F)F)s1)c1cccc(-c2cnc(NC(=O)/C=C/CN3CCN(C)CC3)cn2)c1 [Example 95]
7. C[C@H](C(=O)Nc1ncc(C(F)(F)F)s1)c1cccc(-c2cnc(NC(=O)/C=C/CN3CCCCC3)cn2)c1 [Example 120]
8. C=CC(=O)Nc1ccc(-c2cncc(C(C)C(=O)Nc3ncc(C(F)(F)F)s3)c2)cn1 (stereo not shown) [Example 82]

output:
26
75
40
56
35
57
51
32

Items follow; give IC50 for each.
1. C[C@H](C(=O)Nc1ncc(Cl)s1)c1cccc(-c2cnc(NC(=O)/C=C/CN(C)C)cn2)c1 [Example 93]
2. CC(C(=O)Nc1ncc(C(F)(F)F)s1)c1cncc(-c2cnc(NC(=O)/C=C/CN(C)C)c(C#N)c2)c1 (stereo not shown) [Example 108]

output:
1: 38; 2: 31
